Target: human carbonic anhydrase 9 (CAIX) (human, UniProt Q16790 38-459)
Assay: FACS competition on HT-29 cells against tracer 3BP-2776; pIC50 category A = pIC50 >8.0
Procedure: CAIX-expressing human HT-29 colorectal cancer cells (DSMZ, RRID: CVCL_0320) were cultured in McCoys's 5A modified medium (Biochrom, #F1015) including 10% fetal calf serum (FCS), 2 mM L-glutamine, 100 U/ml penicillin and 100 μg/mL streptomycin. […] Cells were washed twice with ice-cold FACS buffer and analyzed in an Attune NxT flow cytometer (Thermo Fisher). Median fluorescence intensities (MFI) of the APC/Cy5-channel were calculated by Attune NxT software.
Starred links: 1 amine or outer side, 2 acyl side, 3 side chain; linkers in the order of their positions; H or OH if unused. Positions of bridges follow the written chain, without caps; N, C: chain ends. Non-standard residues stand in square brackets, D forms with d. Groups on a side chain read outwards from the residue. *: point of attachment. DOTA = O=C(O)CN1CCN(CC(=O)O)CCN(CC(=O)*)CCN(CC(=O)O)CC1; mXylylene = c1cc(C[*:1])cc(C[*:2])c1; dNMeA = CN[C@H](C)C(=O)O; Apr = not defined here; AEEA = NCCOCCOCC(=O)O
We begin with a simple list: items and their reported pIC50.

- binder: "Ac-VYCE[dA]DWLTWQC-NH2 (linker 3-12 via mXylylene; SMILES CC(=O)N[C@H](C(=O)N[C@@H](Cc1ccc(O)cc1)C(=O)N[C@H]1CSCc2cccc(c2)CSC[C@@H](C(N)=O)NC(=O)[C@H](CCC(N)=O)NC(=O)[C@H](Cc2c[nH]c3ccccc23)NC(=O)[C@H]([C@@H](C)O)NC(=O)[C@H](CC(C)C)NC(=O)[C@H](Cc2c[nH]c3ccccc23)NC(=O)[C@H](CC(=O)O)NC(=O)[C@@H](C)NC(=O)[C@H](CCC(=O)O)NC1=O)C(C)C, also called Ac-Val-Tyr-[Cys(3MeBn)-Glu-ala-Asp-Trp-Leu-Thr-Trp-Gln-Cys]-NH2) [3BP-3046]"
  pIC50: "> 8 pic50"
- binder: "Ac-VYCE[dNMeA]DWLTWAC-NH2 (linker 3-12 via mXylylene; SMILES CC(=O)N[C@H](C(=O)N[C@@H](Cc1ccc(O)cc1)C(=O)N[C@H]1CSCc2cccc(c2)CSC[C@@H](C(N)=O)NC(=O)[C@H](C)NC(=O)[C@H](Cc2c[nH]c3ccccc23)NC(=O)[C@H]([C@@H](C)O)NC(=O)[C@H](CC(C)C)NC(=O)[C@H](Cc2c[nH]c3ccccc23)NC(=O)[C@H](CC(=O)O)NC(=O)[C@@H](C)N(C)C(=O)[C@H](CCC(=O)O)NC1=O)C(C)C, also called Ac-Val-Tyr-[Cys(3MeBn)-Glu-nma-Asp-Trp-Leu-Thr-Trp-Ala-Cys]-NH2) [3BP-3281]"
  pIC50: "> 8 pic50"

Next up:
Dear colleague, I am looking for the recorded pIC50 of the following binder: Ac-SRCE[dP]DWLTWE([Apr-AEEA-DOTA])C-NH2 (linker 3-12 via 3MeBn; reading uncertain, also called Ac-Ser-Arg-[Cys(3MeBn)-Glu-pro-Asp-Trp-Leu-Thr-Trp-Glu(NH-Apr-O2Oc-DOTA′)-Cys]-NH2) [3BP-3735]
> 8 pic50
